- SUBJECT_OF_TEST: WT EGFR kinase domain (Homo sapiens, UniProt P00533)
- Construct: The EGFR kinase domain (residues 696-1022) was cloned into pTriEx; 6xHis (N, cleaved yes); GST (N, cleaved yes); made in house; host or cells: SF9 insect cells (baculovirus)
- Sequence (P00533 696-1022): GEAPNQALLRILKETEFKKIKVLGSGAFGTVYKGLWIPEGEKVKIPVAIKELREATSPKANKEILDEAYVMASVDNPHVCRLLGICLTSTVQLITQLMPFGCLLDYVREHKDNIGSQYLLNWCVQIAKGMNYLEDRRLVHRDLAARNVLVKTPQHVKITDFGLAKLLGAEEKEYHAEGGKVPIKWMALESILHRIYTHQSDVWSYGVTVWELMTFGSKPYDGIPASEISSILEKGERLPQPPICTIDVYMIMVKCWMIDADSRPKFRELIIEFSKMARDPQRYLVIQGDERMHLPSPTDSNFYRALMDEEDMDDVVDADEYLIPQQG
- EXPERIMENTAL_DETAILS: HTRF-based activity assay
- Format: biochemical
- CONDITIONS: 100 μM ATP, enzyme 10 nM, read-out: Biochemical EGFR IC50, wt
READOUT_TYPE: IC50

## Input What does the record list as IC50 for CCc1nc(-c2cccc(NC(=O)c3cccc4c3NC(=O)c3ccccc3N4)c2)c(-c2ccnc(Nc3ccccc3)c2)[nH]1 ?
## Output < 0.01 µM
